Just for reference, paper PMC9785812 is where these values come from.

VALUE TYPE: time without leaching of 153Sm from the chelator

# get_value(readout='time without leaching of 153Sm from the chelator', item= C[C@@H](O)[C@H](NC(=O)[C@@H]1CSSC[C@H](NC(=O)[C@@H](Cc2ccccc2)NC(=O)CN2CCN(CC(=O)O)CCN(CC(=O)O)CCN(CC(=O)O)CC2)C(=O)N[C@@H](Cc2ccc(O)cc2)C(=O)N[C@H](Cc2c[nH]c3ccccc23)C(=O)N[C@@H](CCCCN)C(=O)N[C@@H]([C@@H](C)O)C(=O)N1)C(=O)O [[^153Sm]Sm-DOTA-TATE, metal not drawn] )
> 7 days
